TARGET SYSTEM: Polyunsaturated fatty acid lipoxygenase ALOX15 (Oryctolagus cuniculus, UniProt P12530)
Sequence (P12530 whole entry): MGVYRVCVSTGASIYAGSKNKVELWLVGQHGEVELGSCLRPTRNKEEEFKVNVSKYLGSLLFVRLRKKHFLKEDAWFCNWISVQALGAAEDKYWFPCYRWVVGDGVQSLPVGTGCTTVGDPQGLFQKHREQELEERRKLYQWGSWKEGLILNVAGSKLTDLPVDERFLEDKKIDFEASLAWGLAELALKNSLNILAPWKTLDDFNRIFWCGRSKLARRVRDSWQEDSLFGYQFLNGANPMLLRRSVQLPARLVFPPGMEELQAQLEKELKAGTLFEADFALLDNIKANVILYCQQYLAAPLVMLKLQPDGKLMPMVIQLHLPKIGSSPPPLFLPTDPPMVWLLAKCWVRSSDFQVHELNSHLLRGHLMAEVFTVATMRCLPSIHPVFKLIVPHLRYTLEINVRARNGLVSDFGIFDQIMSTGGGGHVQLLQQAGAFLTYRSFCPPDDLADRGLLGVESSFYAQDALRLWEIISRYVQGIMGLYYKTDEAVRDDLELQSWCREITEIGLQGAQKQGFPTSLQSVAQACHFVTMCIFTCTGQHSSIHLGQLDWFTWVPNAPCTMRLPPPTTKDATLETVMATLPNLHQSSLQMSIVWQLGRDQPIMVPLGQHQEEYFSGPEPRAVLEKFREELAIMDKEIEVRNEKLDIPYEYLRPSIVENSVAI
pIC50: −log10 of the molar value.
MEASUREMENT NAME: pIC50

compound=CC(=O)Oc1c(-c2ccccc2)c(-c2ccccc2)n2ccc(C#N)cc12 assay_value=4.12
compound="N#Cc1ccn2c(-c3ccccc3)c(-c3ccccc3)c(C(O)c3ccccc3)c2c1 (stereo not given)" assay_value=4.32
compound=N#Cc1ccn2c(-c3ccccc3)c(-c3ccccc3)cc2c1 assay_value=4.29
compound=O=c1c(O)c(-c2ccc(O)c(O)c2)oc2cc(O)cc(O)c12 assay_value=4.43
compound=N#Cc1ccn2c(-c3ccccc3)c(-c3ccccc3)c(C(=O)c3ccccc3)c2c1 assay_value=4.37

====

PROTOCOL SUMMARY: Apparent permeability across human Caco2 cells
Format: ADME, cell-based
MEASUREMENT PARAMETERS: Caco-2
MEASUREMENT NAME: Papp (nm/s)

entry_smiles=c1ccn2cc(-c3ccc(OCCCN4CCCCC4)cc3)cc2c1 measurement_name=Papp assay_value=141

====

Tested on: Mycobacterium tuberculosis
PROTOCOL SUMMARY: Antimycobacterial activity against Mycobacterium tuberculosis H37Rv ATCC 27294 at 6.25 ug/mL by microplate alamar blue assay
Type: functional
MEASUREMENT NAME: inhibition at 6.25 µg/mL

compound="N#Cc1ccn2c(-c3ccccc3)c(-c3ccccc3)c(C(O)c3ccc(Cl)cc3)c2c1 (stereo unspecified)" assay_value=95%
compound=N#Cc1ccn2c(-c3ccccc3)c(-c3ccccc3)c(CO)c2c1 assay_value=67%
compound=N#Cc1ccn2c(-c3ccccc3)c(-c3ccccc3)cc2c1 assay_value=9%
compound=N#Cc1ccn2c(-c3ccccc3)c(-c3ccccc3)c(Cc3ccccc3)c2c1 assay_value=43%
compound="COC(c1ccccc1)c1c(-c2ccccc2)c(-c2ccccc2)n2ccc(C#N)cc12 (stereo unspecified)" assay_value=74%
compound=Cc1c(-c2ccccc2)c(-c2ccccc2)n2ccc(C#N)cc12 assay_value=41%

====

Test system: Mycobacterium tuberculosis
PROTOCOL SUMMARY: Antimycobacterial activity against Mycobacterium tuberculosis H37Rv ATCC 27294 at 6.25 ug/mL by microplate alamar blue assay
Format: functional
Entry flag: condition met if inhibition at 6.25 µg/mL reaches 30%; condition not met if it does not.

molecule=N#Cc1ccn2c(-c3ccccc3)c(-c3ccccc3)c(-c3ccccc3)c2c1 classification="condition not met"
molecule=N#Cc1ccn2c(-c3ccccc3)c(-c3ccccc3)c(C(=O)c3ccccc3)c2c1 classification="condition met"
molecule="N#Cc1ccn2c(-c3ccccc3)c(-c3ccccc3)c(C(O)c3ccccc3)c2c1 (stereo not given)" classification="condition met"
molecule=N#Cc1ccn2c(-c3ccccc3)c(-c3ccccc3)c(C=O)c2c1 classification="condition met"
molecule="CC(O)c1c(-c2ccccc2)c(-c2ccccc2)n2ccc(C#N)cc12 (stereo not given)" classification="condition met"

====

PROTOCOL SUMMARY: Inhibition of soybean arachidonate 15-lipoxygenase
Set-up: species or system Glycine max
MEASUREMENT NAME: IC50 (µM)

entry_smiles=CS(=O)(=O)Oc1c(-c2ccccc2)c(-c2ccccc2)n2ccc(C#N)cc12 assay_value=22
entry_smiles=N#Cc1ccn2c(-c3ccccc3)c(-c3ccccc3)c(-c3ccccc3)c2c1 assay_value=28
entry_smiles=N#Cc1ccn2c(-c3ccccc3)c(-c3ccccc3)c(OCOC(COCc3ccccc3)COCc3ccccc3)c2c1 assay_value=31
entry_smiles=CC(C)c1ccc(S(=O)(=O)Oc2c(-c3ccccc3)c(-c3ccccc3)n3ccc(C#N)cc23)cc1 assay_value=16
entry_smiles=N#Cc1ccn2c(-c3ccccc3)c(-c3ccccc3)c(OCc3cccc(Cl)c3)c2c1 assay_value=31
entry_smiles=COc1ccc(COc2c(-c3ccccc3)c(-c3ccccc3)n3ccc(C#N)cc23)cc1 assay_value=32
entry_smiles=COc1ccc(S(=O)(=O)Oc2c(-c3ccc(C)cc3)c(-c3ccc(C)cc3)n3ccc(C#N)cc23)cc1 assay_value=25
entry_smiles=COc1cccc(-c2c(-c3ccccc3)c(-c3ccccc3)n3ccc(C#N)cc23)c1 assay_value=20
entry_smiles=N#Cc1ccn2c(-c3ccccc3)c(-c3ccccc3)c(OCOCc3ccccc3)c2c1 assay_value=27
entry_smiles=Cc1ccc(S(=O)(=O)Oc2c(-c3ccc(F)cc3)c(-c3ccc(F)cc3)n3ccc(C#N)cc23)cc1 assay_value=22
entry_smiles=N#Cc1ccn2c(-c3ccccc3)c(-c3ccccc3)c(C(=O)c3ccccc3)c2c1 assay_value=23
entry_smiles=N#Cc1ccn2c(-c3ccc(F)cc3)c(-c3ccc(F)cc3)cc2c1 assay_value=30
entry_smiles=COc1ccc(-c2c(-c3ccccc3)c(-c3ccccc3)n3ccc(C#N)cc23)cc1 assay_value=20
